Test: in vitro
Details: dog, MDCK
assay readout: efflux ratio

Example cases with answers are listed next.
[[record]]
input_smiles = "O=C(Nc1ccnc(NC(=O)C2CC2)c1)c1c(Cl)cccc1Cl"
obs_value = 0.4

[[record]]
input_smiles = "O=C(Nc1ccnc(NC(=O)[C@H]2C[C@H]2F)c1)c1c(Cl)cccc1Cl"
obs_value = 0.8

[[record]]
input_smiles = "N#Cc1cc(Cl)c(C(=O)Nc2ccnc(NC(=O)C3CC3)c2)c(Cl)c1"
obs_value = 1

[[record]]
input_smiles = "N#Cc1cc(F)c(C(=O)Nc2ccnc(NC(=O)[C@H]3C[C@H]3F)c2)c(Cl)c1"
obs_value = 1.5


[1] N#Cc1cc(Cl)c(C(=O)Nc2ccnc(NC(=O)[C@H]3C[C@H]3F)c2)c(Cl)c1
[2] O=C(Nc1ccnc(NC(=O)[C@H]2C[C@H]2F)c1)c1c(F)cccc1Cl
**Query** Larger number for efflux ratio: 1 , or 2 ? Your answer should be the label of the entry you select.
**Result** 1
(1: 1.5, 2: 0.4)

###

Assay: in vivo
Conditions: Sprague-Dawley, rat, plasma, iv, 1 mg/kg
assay readout: clearance (mL/min/kg)

[[record]]
input_smiles = "O=C(Nc1ccnc(NC(=O)[C@H]2C[C@H]2F)c1)c1c(Cl)cccc1Cl"
obs_value = 15


[I] O=C(Nc1ccnc(NC(=O)C2CC2)c1)c1c(Cl)cccc1Cl
[II] N#Cc1cc(F)c(C(=O)Nc2ccnc(NC(=O)[C@H]3C[C@H]3F)c2)c(Cl)c1
[III] N#Cc1cc(Cl)c(C(=O)Nc2ccnc(NC(=O)C3CC3)c2)c(Cl)c1
[IV] N#Cc1cc(Cl)c(C(=O)Nc2ccnc(NC(=O)[C@H]3C[C@H]3F)c2)c(Cl)c1
[V] O=C(Nc1ccnc(NC(=O)[C@H]2C[C@H]2F)c1)c1c(F)cccc1Cl
**Query** Descending sort on clearance required. Answer by listing the labels in the order asked for.
**Result** V, I, IV, III, II
(V: 39 mL/min/kg, I: 21 mL/min/kg, IV: 4.6 mL/min/kg, III: 3.1 mL/min/kg, II: 1 mL/min/kg)

###

Test: in vivo
Details: CD1, mouse, plasma, iv, 1 mg/kg
assay readout: clearance (mL/min/kg)

[1] N#Cc1cc(Cl)c(C(=O)Nc2ccnc(NC(=O)C3CC3)c2)c(Cl)c1
[2] O=C(Nc1ccnc(NC(=O)C2CC2)c1)c1c(Cl)cccc1Cl
**Query** Sort 1 and 2 by clearance descending and give the first. Mark your answer with the label of the selected entry.
**Result** 2

###

Test: in vivo
Conditions: CD1, mouse, plasma, po, 100 mg/kg
assay readout: AUC (µM·h)

Below are worked cases with known answers.
[[record]]
input_smiles = "N#Cc1cc(Cl)c(C(=O)Nc2ccnc(NC(=O)[C@H]3C[C@H]3F)c2)c(Cl)c1"
obs_value = 1090

[[record]]
input_smiles = "N#Cc1cc(Cl)c(C(=O)Nc2ccnc(NC(=O)C3CC3)c2)c(Cl)c1"
obs_value = 818


[I] N#Cc1cc(F)c(C(=O)Nc2ccnc(NC(=O)[C@H]3C[C@H]3F)c2)c(Cl)c1
[II] O=C(Nc1ccnc(NC(=O)[C@H]2C[C@H]2F)c1)c1c(Cl)cccc1Cl
**Query** Hi, I'm comparing two records. Which one has the lower AUC, I or II ? Give the chosen item's label as your response.
**Result** II
(II: 50 µM·h, I: 917 µM·h)

###

Experiment: physchem
Settings: PBS buffer, pH 7.4
assay readout: solubility (µg/mL)

Worked examples follow.
[[record]]
input_smiles = "N#Cc1cc(F)c(C(=O)Nc2ccnc(NC(=O)[C@H]3C[C@H]3F)c2)c(Cl)c1"
obs_value = 53

[[record]]
input_smiles = "N#Cc1cc(Cl)c(C(=O)Nc2ccnc(NC(=O)[C@H]3C[C@H]3F)c2)c(Cl)c1"
obs_value = 74


[A] N#Cc1cc(Cl)c(C(=O)Nc2ccnc(NC(=O)C3CC3)c2)c(Cl)c1
[B] O=C(Nc1ccnc(NC(=O)[C@H]2C[C@H]2F)c1)c1c(Cl)cccc1Cl
[C] O=C(Nc1ccnc(NC(=O)C2CC2)c1)c1c(Cl)cc(-c2nnc[nH]2)cc1Cl
[D] O=C(Nc1ccnc(NC(=O)[C@H]2C[C@H]2F)c1)c1c(F)cccc1Cl
[E] O=C(Nc1ccnc(NC(=O)C2CC2)c1)c1c(Cl)cc(-c2cn[nH]c2)cc1Cl
**Query** rank_up(items): orders items by reported solubility in ascending numerical order. Give me the labels in the order the question wants.
**Result** E, C, D, A, B
(E: 1 µg/mL, C: 2 µg/mL, D: 28 µg/mL, A: 64 µg/mL, B: 126 µg/mL)

###

Experiment: in vivo
Conditions: Sprague-Dawley, rat, iv, 1 mg/kg
assay readout: Vd (L/kg)

Illustrative cases are given below, each with its answer.
[[record]]
input_smiles = "N#Cc1cc(Cl)c(C(=O)Nc2ccnc(NC(=O)C3CC3)c2)c(Cl)c1"
obs_value = 0.8

[[record]]
input_smiles = "O=C(Nc1ccnc(NC(=O)[C@H]2C[C@H]2F)c1)c1c(Cl)cccc1Cl"
obs_value = 1

[[record]]
input_smiles = "N#Cc1cc(Cl)c(C(=O)Nc2ccnc(NC(=O)[C@H]3C[C@H]3F)c2)c(Cl)c1"
obs_value = 1

[[record]]
input_smiles = "O=C(Nc1ccnc(NC(=O)[C@H]2C[C@H]2F)c1)c1c(F)cccc1Cl"
obs_value = 1.2


[1] O=C(Nc1ccnc(NC(=O)C2CC2)c1)c1c(Cl)cccc1Cl
[2] N#Cc1cc(F)c(C(=O)Nc2ccnc(NC(=O)[C@H]3C[C@H]3F)c2)c(Cl)c1
**Query** Between 1 and 2 , whose measured Vd reads higher? Please respond with the label that marks your chosen entry.
**Result** 2

###

Assay: in vitro
Details: human, plasma
assay readout: fraction unbound

Reference set (3 entries):
[[record]]
input_smiles = "O=C(Nc1ccnc(NC(=O)C2CC2)c1)c1c(Cl)cccc1Cl"
obs_value = 0.049

[[record]]
input_smiles = "N#Cc1cc(Cl)c(C(=O)Nc2ccnc(NC(=O)[C@H]3C[C@H]3F)c2)c(Cl)c1"
obs_value = 0.068

[[record]]
input_smiles = "O=C(Nc1ccnc(NC(=O)[C@H]2C[C@H]2F)c1)c1c(Cl)cccc1Cl"
obs_value = 0.025


[a] N#Cc1cc(Cl)c(C(=O)Nc2ccnc(NC(=O)C3CC3)c2)c(Cl)c1
[b] N#Cc1cc(F)c(C(=O)Nc2ccnc(NC(=O)[C@H]3C[C@H]3F)c2)c(Cl)c1
[c] O=C(Nc1ccnc(NC(=O)[C@H]2C[C@H]2F)c1)c1c(F)cccc1Cl
**Query** Write the entries in order, lowest recorded fraction unbound first. List the labels according to the requested ordering.
**Result** a, c, b

###

Assay: in vivo
Conditions: CD1, mouse, iv, 1 mg/kg
assay readout: Vd (L/kg)

[a] N#Cc1cc(Cl)c(C(=O)Nc2ccnc(NC(=O)C3CC3)c2)c(Cl)c1
[b] O=C(Nc1ccnc(NC(=O)C2CC2)c1)c1c(Cl)cccc1Cl
**Query** Please compare: a and b . Report which one has the smaller Vd value. Return value: the label identifying the chosen record.
**Result** b
(b: 0.6 L/kg, a: 0.9 L/kg)

###

Test: in vitro
Conditions: rat, plasma
assay readout: fraction unbound

As a guide, the following entries are already answered.
[[record]]
input_smiles = "N#Cc1cc(F)c(C(=O)Nc2ccnc(NC(=O)[C@H]3C[C@H]3F)c2)c(Cl)c1"
assay_readout = "fraction unbound"
obs_value = 0.09

[[record]]
input_smiles = "N#Cc1cc(Cl)c(C(=O)Nc2ccnc(NC(=O)C3CC3)c2)c(Cl)c1"
assay_readout = "fraction unbound"
obs_value = 0.059

[[record]]
input_smiles = "O=C(Nc1ccnc(NC(=O)[C@H]2C[C@H]2F)c1)c1c(Cl)cccc1Cl"
assay_readout = "fraction unbound"
obs_value = 0.048

[[record]]
input_smiles = "O=C(Nc1ccnc(NC(=O)[C@H]2C[C@H]2F)c1)c1c(F)cccc1Cl"
assay_readout = "fraction unbound"
obs_value = 0.122


[A] O=C(Nc1ccnc(NC(=O)C2CC2)c1)c1c(Cl)cccc1Cl
[B] N#Cc1cc(Cl)c(C(=O)Nc2ccnc(NC(=O)[C@H]3C[C@H]3F)c2)c(Cl)c1
**Query** // which entry has the larger fraction unbound value, A or B ? Bench note: the answer is the label of the chosen record.
**Result** B

Reference source: ChEMBL document CHEMBL2385054
